assay: log P determination by HPLC on reverse-phase column (EEC Directive 79/831 Annex V.A8); assay type: physicochemical
Note that class boundaries on logP are lower band (below 3), central band (3 to below 4), upper band (4 or more)

Field: example entries. Status: answers known.
{"compound": "CNC(=O)c1cc(C#N)cc(C)c1NC(=O)c1cc(Cn2cnc(C(F)(F)C(F)(F)F)n2)nn1-c1ncccc1Cl [I-1-333]", "classification": "lower band"}
{"compound": "Cc1cc(C#N)cc(C(=O)NC(C)C)c1NC(=O)c1cc(Cn2nc(C(F)(F)F)nc2C(F)(F)F)nn1-c1ncccc1Cl", "classification": "central band"}
{"compound": "CNC(=O)c1cc(Cl)cc(C)c1NC(=O)c1cc(Cn2nnnc2-c2ccc(C(F)(F)F)cc2)nn1-c1ncccc1Cl", "classification": "central band"}
{"compound": "Cc1cc(Cl)cc(C(=O)NC2CC2)c1NC(=O)c1cc(Cn2nc(C(F)F)c([N+](=O)[O-])c2C(F)F)nn1-c1ncccc1Cl", "classification": "central band"}

Query block: Textbook exercise: identify the category of the compound given here, `Cc1cc(I)cc(C(=O)NC2CCCCCCCCCCC2)c1NC(=O)c1cc(Cn2nc(C(F)(F)F)nc2C(F)(F)F)nn1-c1ncccc1Cl` , according to its measured value.
Result block: upper band

Query block: Band assignment needed for `N#CCNC(=O)c1cc(Cl)cc(Cl)c1NC(=O)c1cc(Cn2nc(C(F)(F)F)nc2C(F)(F)F)nn1-c1ncccc1Cl` please.
Result block: lower band

Query block: Pick a category. Item: `CSC[C@H](C)NC(=O)c1cc(Cl)cc(C)c1NC(=O)c1cc(Cn2cnc(C(C)(C)C)n2)nn1-c1ncccc1Cl`
Result block: central band

Query block: State the band of `CC(C)NC(=O)c1cc(Cl)cc(Cl)c1NC(=O)c1cc(Cc2cccnc2)nn1-c1ncccc1Cl`
Result block: lower band

Query block: Which category does the recorded logP put `NC(=O)c1cc(Cl)cc(Cl)c1NC(=O)c1cc(Cc2cncnc2)nn1-c1ncccc1Cl` in?
Result block: lower band

Query block: Entry `Cc1cc(I)cc(C(=O)N(C)C)c1NC(=O)c1cc(Cn2nc(C(F)(F)F)cc2C(F)(F)F)nn1-c1ncccc1Cl` belongs to which category?
Result block: central band

Query block: Categorize the following entry: Cc1cc(Cl)cc(C(=O)NC2CC2)c1NC(=O)c1cc(Cn2cnc(C(F)(F)C(F)(F)F)n2)nn1-c1ncccc1Cl [I-1-331]
Result block: lower band

Query block: Pick a category. Item: `CSc1ncn(Cc2cc(C(=O)Nc3c(C)cc(Cl)cc3C(=O)NC(C)C)n(-c3ncccc3Cl)n2)n1`
Result block: lower band

Query block: Pick a category. Item: `Cc1cc(I)cc(C(=O)NC(C)C)c1NC(=O)c1cc(Cn2cc(Cl)c(C(F)(F)C(F)(F)F)n2)nn1-c1ncccc1Cl`
Result block: upper band

Query block: Which class is correct for the following compound? `Cc1cc(I)cc(C(=O)NC(C)C)c1NC(=O)c1cc(Cn2nc(C(F)(F)F)cc2C(F)(F)F)nn1-c1ncccc1Cl`
Result block: upper band

Query block: Returns: class label. Input: `CC(C)NC(=O)c1cc(Cl)cc(Cl)c1NC(=O)c1cc(Cn2nc(C(F)F)c([N+](=O)[O-])c2C(F)F)nn1-c1ncccc1Cl`
Result block: central band

Query block: Band for Cc1cc(I)cc(C(=O)NC(C)C2CC2)c1NC(=O)c1cc(Cn2cc(Cl)c(C(F)(F)C(F)(F)F)n2)nn1-c1ncccc1Cl (stereo not drawn) ?
Result block: upper band

Query block: // return the class label for `Cc1cc(I)cc(C(=O)NC(C)(C)C)c1NC(=O)c1cc(Cn2nc(C(F)(F)F)nc2C(F)(F)F)nn1-c1ncccc1Cl`
Result block: upper band

Query block: Lab note: sort `Cc1cc(F)cc(C(=O)NC(C)C)c1NC(=O)c1cc(Cn2nc(C(F)(F)F)nc2C(F)(F)F)nn1-c1ncccc1Cl` into the matching logP band.
Result block: central band

Query block: Would you mind sorting `Cc1cc(I)cc(C(=O)NC(C2CC2)C2CC2)c1NC(=O)c1cc(Cn2nc(C(F)(F)F)nc2C(F)(F)F)nn1-c1ncccc1Cl` into the appropriate category?
Result block: upper band

Query block: Form: Item = `Cc1cc(I)cc(C(=O)NC2CCCC2)c1NC(=O)c1cc(Cn2nc(C(F)(F)F)nc2C(F)(F)F)nn1-c1ncccc1Cl` ; Class = ?
Result block: upper band

###

Task for the reader: assign each of the following compounds its reported logP.
experiment: log P determination by HPLC on reverse-phase column (EEC Directive 79/831 Annex V.A8); format: physicochemical
Answers are plain numbers.

{"compound": "O=C(NC1CC1)c1cc(Cl)cc(Cl)c1NC(=O)c1cc(Cn2nc(C(F)(F)F)cc2C(F)(F)F)nn1-c1ncccc1Cl", "obsValue": 3.19}
{"compound": "CNC(=O)c1cc(Cl)cc(Cl)c1NC(=O)c1cc(Cc2c(C)noc2C)nn1-c1ncccc1Cl", "obsValue": 1.94}

Here are 3 compounds. What values of logP were reported for them?
1. Cc1cc(Cl)cc(C(=O)NC(C)C)c1NC(=O)c1cc(Cn2cnc(C(F)(F)C(F)(F)F)n2)nn1-c1ncccc1Cl [I-1-341]
2. CCN(CC)CC(C)NC(=O)c1cc(Cl)cc(C)c1NC(=O)c1cc(Cn2cc(Cl)c(C(F)(F)C(F)(F)F)n2)nn1-c1ncccc1Cl (stereo not shown)
3. Cc1cc(Cl)cc(C(=O)N=S(C(C)C)C(C)C)c1NC(=O)c1cc(Cn2nc(C(F)(F)F)nc2C(F)(F)F)nn1-c1ncccc1Cl

Result block:
1: 2.63; 2: 2.62; 3: 4.44

Would you be so kind as to report logP for each listed record?
1. CC(C)NC(=O)c1cc(Cl)cc(Cl)c1NC(=O)c1cc(Cn2ccc(C(F)(F)F)n2)nn1-c1ncccc1Cl
2. CNC(=O)c1cc(F)cc(C)c1NC(=O)c1cc(Cn2cc(C(F)(F)C(F)(F)F)c(C(F)(F)C(F)(F)F)n2)nn1-c1ncccc1Cl

Result block:
[2.77, 4.06]

###

assay: log P determination by HPLC on reverse-phase column (EEC Directive 79/831 Annex V.A8); type: physicochemical
Label T when logP is at or above 3; otherwise label F.

// known answers, use as guide
{"compound": "CCNC(=O)c1cc(I)cc(C)c1NC(=O)c1cc(Cn2ccc(C(F)(F)F)n2)nn1-c1ncccc1Cl", "classification": "T"}
{"compound": "Cc1cc(I)cc(C(=O)NC(C)C2CC2)c1NC(=O)c1cc(Cn2nc(C(F)(F)F)nc2C(F)(F)F)nn1-c1ncccc1Cl (centres unmarked)", "classification": "T"}
{"compound": "Cc1cc(F)cc(C(=O)NC2C3CCCCC32)c1NC(=O)c1cc(Cn2cc(Cl)c(C(F)(F)C(F)(F)F)n2)nn1-c1ncccc1Cl (centres unmarked)", "classification": "T"}
{"compound": "O=C(NC1CC1)c1cc(Cl)cc(Cl)c1NC(=O)c1cc(Cn2cnc(C(F)(F)C(F)(F)F)n2)nn1-c1ncccc1Cl [I-1-335]", "classification": "F"}

Query block: Say whether `CNC(=O)c1cc(Cl)cc(C)c1NC(=O)c1cc(Cn2nnc(-c3cc(Cl)nc(Cl)c3)n2)nn1-c1ncccc1Cl` shows logP of 3 or more.
Result block: T

Query block: Determine whether this compound has logP no lower than 3: `CNC(=O)c1cc(C#N)cc(C)c1NC(=O)c1cc(Cn2ccc(C(F)(F)F)n2)nn1-c1ncccc1Cl`
Result block: F

Query block: Say whether C[C@@H](C[S+](C)[O-])NC(=O)c1cc(Cl)cc(Cl)c1NC(=O)c1cc(Cn2cc(C(F)(F)C(F)(F)F)c(C(F)(F)C(F)(F)F)n2)nn1-c1ncccc1Cl (some centres unmarked) shows logP of 3 or more.
Result block: T

Query block: Is logP for `CNC(=O)c1cc(Cl)cc(Cl)c1NC(=O)c1cc(Cn2nc(C(F)(F)F)nc2C(F)(F)F)nn1-c1ncccc1Cl` at or above 3?
Result block: T

Query block: Assess whether reported logP for `Cc1cc(C#N)cc(C(=O)NC2CC2)c1NC(=O)c1cc(Cn2cc(Cl)c(C(F)(F)C(F)(F)F)n2)nn1-c1ncccc1Cl` sits at 3 or higher.
Result block: T

###

assay: log P determination by HPLC on reverse-phase column (EEC Directive 79/831 Annex V.A8); type: physicochemical; conditions: HPLC on reverse-phase column
experimentalEndpoint: logP

Sample answers from the record:
{"compound": "CNC(=O)c1cc(Cl)cc(C)c1NC(=O)c1cc(Cn2ccc(Br)n2)nn1-c1ncccc1Cl [I-1-125]", "experimentalEndpoint": "logP", "obsValue": 2.56}
{"compound": "CNC(=O)c1cc(Cl)cc(C)c1NC(=O)c1cc(Cn2cc(I)cn2)nn1-c1ncccc1Cl [I-1-45]", "experimentalEndpoint": "logP", "obsValue": 2.67}
{"compound": "CNC(=O)c1cc(Br)cc(C)c1NC(=O)c1cc(Cn2cc(C(F)(F)C(F)(F)F)c(C(F)(F)C(F)(F)F)n2)nn1-c1ncccc1Cl [I-1-25]", "experimentalEndpoint": "logP", "obsValue": 4.39}
{"compound": "Cc1cc(Cl)cc(C(=O)NC(C)C)c1NC(=O)c1cc(Cn2cc(C#N)cn2)nn1-c1ncccc1Cl [I-1-8]", "experimentalEndpoint": "logP", "obsValue": 2.57}

Give logP for all compounds that follow.
1. Cc1cc(Cl)cc(C(=O)N[C@@H](C)C[S+](C)[O-])c1NC(=O)c1cc(Cn2nc(C(F)(F)F)nc2C(F)(F)F)nn1-c1ncccc1Cl (stereo partly drawn) [I-1-147]
2. CCNC(=O)OC[C@H](C)NC(=O)c1cc(Cl)cc(C)c1NC(=O)c1cc(Cn2nc(C(F)(F)F)nc2C(F)(F)F)nn1-c1ncccc1Cl [I-1-77]
3. Cc1cc(Cl)cc(C(=O)NC(C)C)c1NC(=O)c1cc(Cn2nc(C(F)(F)F)nc2C(F)(F)F)nn1-c1ncccc1Cl [I-1-5]
4. Cc1cc(Cl)cc(C(=O)NC(C)C)c1NC(=O)c1cc(Cn2cc(Br)c(C(F)(F)F)n2)nn1-c1ncccc1Cl [I-1-67]

Result block:
1. 2.95
2. 3.58
3. 3.88
4. 3.78

For every item in the list below, what is its measured logP?
1. CSCC(C)(C)NC(=O)c1cc(Cl)cc(C)c1NC(=O)c1cc(Cn2cc(Br)c(C(F)(F)F)n2)nn1-c1ncccc1Cl [I-1-131]
2. CNC(=O)c1cc(Br)cc(C)c1NC(=O)c1cc(Cn2ccc(C(F)(F)F)n2)nn1-c1ncccc1Cl [I-1-80]
3. CSCC(C)NC(=O)c1cc(Br)cc(C)c1NC(=O)c1cc(Cn2cc(Br)c(C(F)(F)F)n2)nn1-c1ncccc1Cl (stereo not drawn) [I-1-99]
4. Cc1cc(Br)cc(C(=O)NCC#N)c1NC(=O)c1cc(Cn2ccc(C(F)(F)F)n2)nn1-c1ncccc1Cl [I-1-85]
5. Cc1cc(Cl)cc(C(=O)NC(C)C)c1NC(=O)c1cc(Cn2nnn(CC(F)(F)F)c2=O)nn1-c1ncccc1Cl [I-1-123]

Result block:
[4.48, 2.99, 4.10, 2.98, 2.92]

Hi, could you look up logP for each item in my list?
1. Cc1cc(Br)cc(C(=O)NC(C)C)c1NC(=O)c1cc(Cn2cc(C(F)(F)C(F)(F)F)c(C(F)(F)C(F)(F)F)n2)nn1-c1ncccc1Cl [I-1-13]
2. Cc1cc(Cl)cc(C(=O)NC(C)C)c1NC(=O)c1cc(Cn2nc(C(F)(F)F)n(C3CC3)c2=O)nn1-c1ncccc1Cl [I-1-126]
3. Cc1cc(Br)cc(C(=O)NC(C)(C)C[S+](C)[O-])c1NC(=O)c1cc(Cn2nc(C(F)(F)F)nc2C(F)(F)F)nn1-c1ncccc1Cl (stereo not drawn) [I-1-143]

Result block:
[4.98, 3.18, 3.20]
